target system: CYP3A4 (Homo sapiens)
Sequence (P08684 whole entry): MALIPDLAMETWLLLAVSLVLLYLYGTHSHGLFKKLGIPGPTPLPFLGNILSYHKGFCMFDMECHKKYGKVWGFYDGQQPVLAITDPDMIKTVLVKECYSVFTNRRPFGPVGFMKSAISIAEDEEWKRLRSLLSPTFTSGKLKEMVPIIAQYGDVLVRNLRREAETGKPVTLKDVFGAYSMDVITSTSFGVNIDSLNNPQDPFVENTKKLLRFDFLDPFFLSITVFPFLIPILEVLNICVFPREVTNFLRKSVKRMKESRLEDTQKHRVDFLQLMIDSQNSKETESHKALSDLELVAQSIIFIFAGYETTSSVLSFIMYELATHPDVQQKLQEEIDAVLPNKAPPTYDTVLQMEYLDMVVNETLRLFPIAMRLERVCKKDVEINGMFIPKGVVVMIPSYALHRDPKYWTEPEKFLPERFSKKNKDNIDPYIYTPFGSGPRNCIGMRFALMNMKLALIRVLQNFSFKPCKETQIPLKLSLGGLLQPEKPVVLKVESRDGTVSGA
assay procedure: biochemical
settings: CYP3A4 AC50 (half-maximal activity concentration)
assay endpoint: AC50 (µM)
Field format: number, assumed µM, no unit text.

Record excerpt, results attached:
>  <compound>
Brc1ccc(Oc2ccc(Br)cc2Br)c(Br)c1

>  <AC50, µM>
13

$$$$
>  <compound>
O=C(NC(=O)c1c(F)cccc1F)Nc1ccc(Oc2ccc(C(F)(F)F)cc2Cl)cc1F

>  <AC50, µM>
18.6

$$$$
>  <compound>
ClC(Cl)(Cl)c1ccc(C(Cl)(Cl)Cl)cc1

>  <AC50, µM>
45.9

$$$$
>  <compound>
O=C(Cl)c1cccc(C(=O)Cl)c1 [1,3-Benzenedicarbonyl dichloride]

>  <AC50, µM>
26.8

$$$$
>  <compound>
O=C(c1ccccc1)C1CCCCC1

>  <AC50, µM>
29.2

$$$$

Give me measured AC50, please, for this compound: "C[C@]12CCC(=O)C=C1C=C[C@@H]1[C@@H]2CC[C@@]2(C)[C@H]1CC[C@@]21CCC(=O)O1"
3.48

Using the record for O=C(OCCOCCOC(=O)c1ccccc1)c1ccccc1 [Diethylene glycol dibenzoate] , state its measured AC50.
11.4

Determine its reported AC50: CCOC(=O)CCCCCCCCC(=O)OCC [Diethyl decanedioate]
26.2
